experiment-description: Effective concentration against Abeta(sw) peptide
Assay type: functional
Consider the following compounds; for each one, report its EC50.
Numbers only, in µM.

For orientation, consider the following solved cases.
smiles-repr: CN(C)c1ccc(NC(=O)Nc2cc(C(F)(F)F)cc(C(F)(F)F)c2)cc1C(=O)NCCCN1CCOCC1
EC50 [µM]: 3

smiles-repr: CCOCCCNC(=O)c1cc(NC(=O)Nc2cccc(Cl)c2)ccc1N(C)C
EC50 [µM]: 2.6

smiles-repr: CCSc1nsc(NC(=O)Nc2cccc(C(C)=O)c2)n1
EC50 [µM]: 2.6

Attention now turns to another entry.
`COCCCNC(=O)c1cc(NC(=O)Nc2cc(C(F)(F)F)cc(C(F)(F)F)c2)ccc1N(C)C` yielded EC50 of 3.2
